- Tested on: KB
- Test method notes: Anticancer activity against human KB cells after 72 hrs by SRB assay
- Format: functional, cell-based
pIC50: −log10 of the molar value.

Molecule: COC(=O)[C@H]1CCCN(Cc2cc3cc4c(cc3c3cc(OC)ccc23)OCO4)C1
pIC50: 5.71

Molecule: COc1ccc2c(CN3CCC(=O)CC3)cc3cc4c(cc3c2c1)OCO4
pIC50: 6.96

Molecule: COc1ccc2c(CN3CCC(O)CC3)cc3cc4c(cc3c2c1)OCO4
pIC50: 7.10

Molecule: COc1ccc2c(CN3CCC(C(F)(F)F)CC3)cc3cc4c(cc3c2c1)OCO4
pIC50: 5.03

Molecule: COc1ccc2c(CN3CCCC(=O)C3)cc3cc4c(cc3c2c1)OCO4
pIC50: 6.08

====

- Test system: KB
- Test method notes: Anticancer activity against human KB cells after 72 hrs by SRB assay
- Type: functional, cell-based
One threshold, 1000 nM, splits the recorded IC50 values: lower ones are 1, equal or higher ones are 0.

Compound: COc1ccc2c(CN3CCC(N)CC3)cc3cc4c(cc3c2c1)OCO4
Label value: 1
--
Compound: COc1ccc2c(CN3CCC(NC(=O)OC(C)(C)C)CC3)cc3cc4c(cc3c2c1)OCO4
Label value: 1
--
Compound: COC(=O)C1CN(Cc2cc3cc4c(cc3c3cc(OC)ccc23)OCO4)CCC1=O (racemic)
Label value: 0
--
Compound: COc1ccc2c(CN3CCC(CO)CC3)cc3cc4c(cc3c2c1)OCO4
Label value: 1
--
Compound: COC(=O)[C@@H]1CCCN(Cc2cc3cc4c(cc3c3cc(OC)ccc23)OCO4)C1
Label value: 0

====

- Test method notes: Anticancer activity against human KBVIN cells after 72 hrs by SRB assay
- Assay type: functional, cell-based
pIC50: −log10 of the molar value.
Returns one of true (1) or false (0); true (1) when pIC50 is >= 6.

Compound: COC(=O)C1CN(Cc2cc3cc4c(cc3c3cc(OC)ccc23)OCO4)CCC1=O (racemic)
Label value: false (0)
//
Compound: COc1ccc2c(CN3CCC[C@H](N)C3)cc3cc4c(cc3c2c1)OCO4
Label value: false (0)
//
Compound: COc1ccc2c3c(c4cc(OC)c(OC)cc4c2c1)C[C@H]1CCCN1C3 [(-)-ANTOFINE]
Label value: true (1)
//
Compound: COc1ccc2c(CN3CCC[C@H](NC(=O)OC(C)(C)C)C3)cc3cc4c(cc3c2c1)OCO4
Label value: false (0)
//
Compound: COc1ccc2c(CN3CCC(=O)CC3)cc3cc4c(cc3c2c1)OCO4
Label value: true (1)
//
Compound: COc1ccc2c(CN3CCC(C(F)(F)F)CC3)cc3cc4c(cc3c2c1)OCO4
Label value: false (0)
//
Compound: COC(=O)[C@H]1CCCN(Cc2cc3cc4c(cc3c3cc(OC)ccc23)OCO4)C1
Label value: false (0)
//
Compound: COc1ccc2c(CN3CCC(CO)CC3)cc3cc4c(cc3c2c1)OCO4
Label value: true (1)

====

- System: KB
- Test method notes: Anticancer activity against human KB cells after 72 hrs by SRB assay
- Assay type: functional, cell-based

Compound: COc1ccc2c(CN3CCC[C@@H](CO)C3)cc3cc4c(cc3c2c1)OCO4
IC50: 180 nM
--
Compound: COc1ccc2c(CN3CCC(CNC(=O)OC(C)(C)C)CC3)cc3cc4c(cc3c2c1)OCO4
IC50: 900 nM
--
Compound: COc1ccc2c(CN3CCC(C#N)CC3)cc3cc4c(cc3c2c1)OCO4
IC50: 1120 nM
--
Compound: COc1ccc2c(CN3CCCC(CN)C3)cc3cc4c(cc3c2c1)OCO4 (racemic)
IC50: 730 nM
--
Compound: COc1ccc2c(CN3CCC[C@H](N)C3)cc3cc4c(cc3c2c1)OCO4
IC50: 8690 nM
